- run.description: in vitro
- Type: cell-based
- test.context: human, NHK cells (normal human keratinocytes)
Residues, ends and D or L forms follow the SMILES beside them.
measured.property: viability at 24 h, 12.5 µM
Remember to follow the number with its unit.

Reference set (3 entries):
CC[C@H](C)[C@H](NC(=O)[C@H](Cc1c[nH]c2ccccc12)NC(=O)[C@H](CCCNC(=N)N)NC(=O)[C@@H](NC(=O)[C@@H](N)CCCNC(=N)N)[C@@H](C)CC)C(=O)N[C@@H](CC(C)C)C(=O)N[C@@H](CCCNC(=N)N)C(=O)N[C@@H](Cc1ccc(O)cc1)C(=O)N[C@@H](Cc1c[nH]c2ccccc12)C(=O)N[C@@H](CCCNC(=N)N)C(=O)N[C@@H](Cc1c[nH]c2ccccc12)C(=O)N[C@@H](CO)C(N)=O [Myxinidin 3, RIRWILRYWRWS-NH2] (H-RIRWILRYWRWS-NH2; N-terminus assumed)	100%
CC[C@H](C)[C@H](NC(=O)CN)C(=O)N[C@@H](Cc1c[nH]cn1)C(=O)N[C@@H](CC(=O)O)C(=O)N[C@H](C(=O)N[C@@H](CC(C)C)C(=O)N[C@@H](CCCCN)C(=O)N[C@@H](Cc1ccc(O)cc1)C(=O)NCC(=O)N[C@@H](CCCCN)C(=O)N1CCC[C@H]1C(=O)N[C@@H](CO)C(N)=O)[C@@H](C)CC [Myxinidin, GIHDILKYGKPS-NH2] (H-GIHDILKYGKPS-NH2)	98%
CC[C@H](C)[C@H](NC(=O)CN)C(=O)N[C@@H](Cc1c[nH]cn1)C(=O)N[C@@H](Cc1c[nH]cn1)C(=O)N[C@H](C(=O)N[C@@H](CC(C)C)C(=O)N[C@@H](CCCCN)C(=O)N[C@@H](Cc1ccc(O)cc1)C(=O)NCC(=O)N[C@@H](CCCCN)C(=O)N1CCC[C@H]1C(=O)N[C@@H](CO)C(N)=O)[C@@H](C)CC [Myxinidin 1, GIHHILKYGKPS-NH2] (H-GIHHILKYGKPS-NH2; N-terminus assumed)	96%

Entry under test: CC[C@H](C)[C@H](NC(=O)[C@H](Cc1c[nH]c2ccccc12)NC(=O)[C@H](CCCCN)NC(=O)[C@@H](NC(=O)[C@@H](N)CCCCN)[C@@H](C)CC)C(=O)N[C@@H](CC(C)C)C(=O)N[C@@H](CCCCN)C(=O)N[C@@H](Cc1ccc(O)cc1)C(=O)N[C@@H](Cc1c[nH]c2ccccc12)C(=O)N[C@@H](CCCCN)C(=O)N[C@@H](Cc1c[nH]c2ccccc12)C(=O)N[C@@H](CO)C(N)=O [Myxinidin 2, KIKWILKYWKWS-NH2] (H-KIKWILKYWKWS-NH2; N-terminus assumed) . Its viability at 24 h, 12.5 µM was 98%
